assay: Gelatinizing ability in aqueous solutions of varying pH (gel formation observed); type: physicochemical; design: key: the formation of gel is indicated by “G”; partial formation of gel is indicated by “LG”; unchanged aqueous solution is indicated by “S”; the formation of a precipitate is indicated by “P”; insolubility is indicated by “I”; conditions: 10 mg compound in 0.5 ml buffer solution pH 755; 60° C. or more, ultrasound one hour, then room temperature
measurement label: formation of a gel, pH 755

Sample records with formation of a gel, pH 755:
molecule | result
Cc1cn([C@H]2C[C@H](OP(=O)(O)OCCCCCCCCCCCCCCCCCCCCOP(=O)(O)O[C@H]3C[C@H](n4cc(C)c(=O)[nH]c4=O)O[C@@H]3CO)[C@@H](CO)O2)c(=O)[nH]c1=O [Compound 7] | G
Cc1cn([C@H]2C[C@H](OP(=O)(O)OCCCCCCCCCCCCCCCCOP(=O)(O)O[C@H]3C[C@H](n4cc(C)c(=O)[nH]c4=O)O[C@@H]3CO)[C@@H](CO)O2)c(=O)[nH]c1=O [Compound 5] | S
Cc1cn(C2CC(OP(=O)(O)OCCCCCCCCCCCCCCCOP(=O)(O)OC3CC(n4cc(C)c(=O)[nH]c4=O)OC3CO)C(CO)O2)c(=O)[nH]c1=O (stereo not shown) [Compound 4] | S
Cc1cn([C@H]2C[C@H](OP(=O)(O)OCCCCCCCCCCCCOP(=O)(O)O[C@H]3C[C@H](n4cc(C)c(=O)[nH]c4=O)O[C@@H]3CO)[C@@H](CO)O2)c(=O)[nH]c1=O [Compound 1] | S

I have this molecule here, Cc1cn(C2CC(OP(=O)(O)OCCCCCCCCCCCCCCOP(=O)(O)OC3CC(n4cc(C)c(=O)[nH]c4=O)OC3CO)C(CO)O2)c(=O)[nH]c1=O (stereo not shown) [Compound 3] , and I need its recorded formation of a gel, pH 755. S

I have this molecule here, Cc1cn([C@H]2C[C@H](OP(=O)(O)OCCCCCCCCCCCCCOP(=O)(O)O[C@H]3C[C@H](n4cc(C)c(=O)[nH]c4=O)O[C@@H]3CO)[C@@H](CO)O2)c(=O)[nH]c1=O [Compound 2] , and I need its recorded formation of a gel, pH 755. S

I have this molecule here, Cc1cn([C@H]2C[C@H](OP(=O)(O)OCCCCCCCCCCCCCCCCCCOP(=O)(O)O[C@H]3C[C@H](n4cc(C)c(=O)[nH]c4=O)O[C@@H]3CO)[C@@H](CO)O2)c(=O)[nH]c1=O [Compound 6] , and I need its recorded formation of a gel, pH 755. P
